# TEST_SUMMARY: NCI Yeast Anticancer Drug Screen. Data for the mec2-1 strain (AID 157)
# CONDITIONS_USED: S. cerevisiae mec2-1 strain, at 50.0 µM, stronger effect = higher value
About 79,000 compounds went through this panel and 15% of them were active in at least one assay; those are over-represented in the sample as a whole.
PROPERTY_MEASURED: growth inhibition (%)

>>> value_measured("Cc1ccc(S(=O)(=O)N2CCC[C@@H]2C(=O)O[C@@H]2CCC3CC=CC32)cc1 (some centres not stated)")
-17.3
>>> value_measured("Nc1nc(N)c2c(n1)Nc1ccc(Cl)nc1S2")
69.3
>>> value_measured("O=C1OC(=O)C2C1C1c3ccccc3C2(Br)c2ccccc21 (configuration not stated)")
13.7
>>> value_measured("O=[N+]([O-])c1ccc2[nH]ncc2c1")
-8.05
>>> value_measured("Cc1nc2nncn2c(=O)[nH]1")
-0.4
>>> value_measured("N#CC1=C(N)NC(=O)C(C(N)=O)C1c1ccccc1Cl (configuration not stated)")
-13.4
>>> value_measured("CC1OC(C)(c2ccc(Cl)cc2)OCC1(C)C (configuration not stated)")
-1.15
>>> value_measured("O=[N+]([O-])c1ccccc1S(=O)(=O)N1CCCc2cc(Cl)ccc21")
4.15
>>> value_measured("Cc1cc(Cl)c(C)c(C)c1O")
5.45
>>> value_measured("CN(N=O)C(=O)NCCSc1ncnc2nc[nH]c12")
13.1
>>> value_measured("OC1C=COC2COC(c3ccccc3)OC12 (configuration not stated)")
-8.95
>>> value_measured("N#CC(c1ccc(Cl)cc1)c1cccc(C(C#N)c2ccc(Cl)cc2)n1 (configuration not stated)")
13.6

* * *

# TEST_SUMMARY: NCI Yeast Anticancer Drug Screen. Data for the mec2-1 strain (AID 157)
# CONDITIONS_USED: S. cerevisiae mec2-1 strain, at 50.0 µM
Compounds without any hit were thinned out: in the full panel of roughly 79,000, 15% have a hit. Activity calls are given as the source filed them. No stated cut-off is given here; in the data, active means growth inhibition above about 70%; inactive means the rest.
Labels: active, inactive

>>> qualitative_label("CC(=O)Oc1ccc(-c2ccccc2)cc1C(=O)O")
"inactive"
>>> qualitative_label("O=C1C2C3CCC(O3)C2C(=O)N1Cc1ccccc1CN1C(=O)C2C3CCC(O3)C2C1=O (stereo unspecified)")
"active"
>>> qualitative_label("Cc1csc2nc(-c3cccs3)nn12")
"inactive"
>>> qualitative_label("COc1ccc(C2SC(N)=Nc3c2c(C)nn3C(=O)c2ccc(Cl)cc2)cc1 (stereo unspecified)")
"inactive"
>>> qualitative_label("CC(C)(CO)N=Cc1ccc(Cl)c(Cl)c1")
"inactive"
>>> qualitative_label("O=C(O)/C(=C/c1ccc([N+](=O)[O-])cc1)c1ccc([N+](=O)[O-])cc1")
"inactive"

* * *

growth inhibition listing for selected compounds.
# TEST_SUMMARY: NCI Yeast Anticancer Drug Screen. Data for the mlh1 rad18 strain (AID 175)
# CONDITIONS_USED: S. cerevisiae mlh1 rad18 strain growth inhibition; at 50.0 µM; stronger effect = higher value
The panel holds about 79,000 compounds, 15% with a hit somewhere; the sample as a whole holds those more often.
PROPERTY_MEASURED: growth inhibition (%)

>>> value_measured("COc1ccc2c(c1OC)C1CCCCC1SCC2=O (stereo not given)")
-16.4
>>> value_measured("c1cc(Cc2ccsc2)cs1")
-10.8
>>> value_measured("O=S(=O)(OCC1CC2C=CC1C2)c1ccc(Br)cc1 (stereo not given)")
3.65
>>> value_measured("COC1C(=O)CCC2(CO2)C1(O)C1(C)OC1CC=C(C)C (stereo not given)")
-25.8
>>> value_measured("CCCCc1c2c(nc3c1CCC/C3=C\\c1ccccc1)/C(=C/c1ccccc1)CCC2")
22.3
>>> value_measured("CC(C)(C)C(=O)C(Cc1ccccc1)C(=O)C(C)(C)C")
-1.95
>>> value_measured("CCS(=O)(=O)/C=C/c1ccco1")
-14.9
>>> value_measured("O=C(O)C1CC1(c1ccccc1)c1ccccc1 (stereo not given)")
15.8
>>> value_measured("O=C1C(=O)c2ccccc2C(O)=C1Br")
29.8
>>> value_measured("NC(N)=Nc1cccc2c1CC=CC2")
-0.2
>>> value_measured("CCCC(O)C(C)(C)[N+](=O)[O-] (stereo not given)")
9.95
>>> value_measured("COC(=O)C1OC1(C)c1ccccc1 (stereo not given)")
-2.55
>>> value_measured("CC1=CC2(C)Cc3cc(C)cc(C)c3S(=O)(=O)C2C(C(=O)O)=C1 (stereo not given)")
-15.2
>>> value_measured("CC(=O)c1cc(-c2ccccn2)c(=O)n2ccccc12")
-4
>>> value_measured("CC1=NN(C(=O)Cc2ccccc2)C(=O)/C1=C\\c1ccccc1O")
-39.9
>>> value_measured("COC(=O)CCC(N)C(=O)NC(Cc1ccccc1)C(=O)NC(C)C(=O)NC1C(O)OC(CO)C(O)C1O (stereo not given)")
-5.6
>>> value_measured("N=C1C(O)C2(I)c3ccccc3N3C(=N)C(O)C4c5ccccc5N1C4C32 (stereo not given)")
8.95
>>> value_measured("CC1(C(=O)O)CCC(C(=O)Nc2ccccc2)C1(C)C (stereo not given)")
1.9
>>> value_measured("Clc1cccc[n+]1CCc1ccccc1")
44
>>> value_measured("CCC(C)NC(=O)Nc1ccccc1 (stereo not given)")
6.35
>>> value_measured("Oc1ccc2ccc(O)cc2c1")
5.4
>>> value_measured("CC(C)CCC[C@@H](C)[C@H]1CC[C@H]2[C@@H]3C[C@@H](O)[C@@]4(O)C[C@@H](O)CC[C@]4(C)[C@H]3CC[C@]12C")
19.5
>>> value_measured("Cc1cc(NS(=O)(=O)c2ccc(N=[N+]([O-])c3ccc(S(=O)(=O)Nc4cc(C)on4)cc3)cc2)no1")
-19.6
>>> value_measured("CSC(SC)=C1Sc2cccc(Cl)c2S1")
-13.8
>>> value_measured("CCc1cccc(CC)c1Nc1nc(-c2ccccc2-c2ccccc2)cs1")
-39.9
>>> value_measured("CC(C)OC(=O)C(=O)Nc1cccc(Cl)c1")
-2.5
>>> value_measured("CCCCC(CC)CN(CC(CC)CCCC)C1C=CCCC1 (stereo not given)")
2.7
>>> value_measured("CN(C)C(=O)C1OC1(C)c1ccccc1 (stereo not given)")
-7.95
>>> value_measured("Cc1cc(Cl)cc(CN(C)Cc2c(C)[nH]c(=O)[nH]c2=O)c1O")
-8.9
>>> value_measured("COc1ccc(/C=N/NC(=O)c2ccc(N)cc2)cc1")
8.75
>>> value_measured("COC(=O)Nn1cc(C(C(C)=O)C(C)=O)c(C(C)=O)c1C")
17.9
>>> value_measured("CCCCCCCCCCCCNC(=S)N/N=C/c1ccc(OC)cc1")
-28.2
>>> value_measured("COc1ccccc1NC(=O)CC(=O)NN")
0.7
>>> value_measured("CC(C)(C)CC(C)(C)c1ccc(OCCOc2ccccc2NS(=O)(=O)c2ccc(N)cc2)cc1")
23.6
>>> value_measured("COc1ccccc1NC(=O)C1=C(C)NC(C)=C(C(=O)Nc2ccccc2OC)C1c1ccc(C(C)C)cc1")
33.8
>>> value_measured("COc1ccc(C(=O)O[C@@H]2CCN3CC[C@H](C)[C@H]23)cc1")
-74.8
>>> value_measured("O=C1NNC=Nc2ccc(cc2)S(=O)(=O)c2ccc(cc2)N=CNNC1=O")
-45.9
>>> value_measured("c1ccc(CCCCCCc2ccccc2)cc1")
1.3
>>> value_measured("O=C(O)CCNCC(=O)O")
-23.6
>>> value_measured("OCC1=CC(c2ccccc2)(c2ccccc2)c2ccccc21")
95.4

* * *

# TEST_SUMMARY: NCI Yeast Anticancer Drug Screen. Data for the mec2-1 strain (AID 157)
# CONDITIONS_USED: S. cerevisiae mec2-1 strain, at 50.0 µM, stronger effect = higher value
Compounds without any hit were thinned out: in the full panel of roughly 79,000, 15% have a hit.
growth inhibition listing for selected compounds.
PROPERTY_MEASURED: growth inhibition (%)

>>> value_measured("Nc1cc2c3c(cccc3c1Br)C(=O)NC2=O")
14.6
>>> value_measured("O=C(CN(C(=O)OC12CC3CC(CC(C3)C1)C2)C(=O)OC12CC3CC(CC(C3)C1)C2)Oc1ccc([N+](=O)[O-])cc1")
7.15
>>> value_measured("COC(=O)c1sc(N2CCCC2)nc1N")
9.95
>>> value_measured("CC(=O)OC1(C(=O)O)CCCCC1")
14
>>> value_measured("O=C(O)CCNCC(=O)O")
-32.6
>>> value_measured("C[C@@H](Oc1ccc(Oc2cnc3ccc(Cl)cc3n2)cc1)C(=O)O")
5.4
>>> value_measured("COc1cc2c(c(OC)c1OC)-c1ccc(OC)c(=O)cc1[C@@H](NC(=O)c1ccccc1)CC2")
7.15
>>> value_measured("CC/C(Cl)=N\\OC(=O)Nc1ccc(C#N)cc1")
4.9
>>> value_measured("CCCCNc1ccc2c(C)cc(=O)oc2c1")
-30.6
>>> value_measured("Cc1cc(C(C)(C)C)nc(C(C)(C)C)c1")
6.4
>>> value_measured("C=COC(=O)c1ccccc1O")
-34
>>> value_measured("O=C(Nc1ccccc1SC(/C=C/NNC1=NC(c2ccccc2)C(c2ccccc2)=NN1)c1ccccc1)c1ccc(Cl)cc1Cl (centres undefined)")
-7.7
>>> value_measured("Cc1cc(C)c([N+](=O)[O-])cc1[N+](=O)[O-]")
5.5
>>> value_measured("CCOC(=O)COc1c(C)cccc1Cl")
0.6
>>> value_measured("O=C1c2ccccc2C(=O)N1CCc1ncc(-c2ccccc2)[nH]1")
7.85
>>> value_measured("CNC(=O)OCc1c(COC(=O)NC)c2n(c1C)CCS2(=O)=O")
-18.3
>>> value_measured("O=C(C[n+]1ccccc1)c1ccc([N+](=O)[O-])cc1")
-2.2
>>> value_measured("CC(=O)Oc1ccccc1OC(=S)N(C)C")
-7.35
>>> value_measured("CCOC(=O)C(Cc1ccc(O)cc1)NC(=O)C(CSC(c1ccccc1)(c1ccccc1)c1ccccc1)NC(c1ccccc1)(c1ccccc1)c1ccccc1 (centres undefined)")
0.8
>>> value_measured("CN(C)N=Nc1ccc(C(=O)N/N=C/c2ccccc2[N+](=O)[O-])cc1")
1.2
>>> value_measured("CCOC(=O)/C(O)=C/c1nc2ccccc2nc1C")
5.65
>>> value_measured("C[n+]1ccccc1/C=C/C=C/c1ccccc1")
-13.1
>>> value_measured("CS(=O)(=O)c1[nH]nc2[nH]c(=O)[nH]c(=O)c12")
-30.4
>>> value_measured("COc1nc(NC2OC(COC(C)=O)C(OC(C)=O)C(OC(C)=O)C2OC(C)=O)c(-c2csc(N)n2)c(=O)n1C (centres undefined)")
-26.2
>>> value_measured("CN1N(c2ccccc2)C(=O)C2=NC=C(C#N)C(=N)C21C (centres undefined)")
41
>>> value_measured("CC(C)(CCl)c1ccccc1")
-3.1
>>> value_measured("O=c1cc(-c2ccccc2)[nH]c2nccn12")
-27.1
>>> value_measured("Cc1ccccc1N1C(=O)[N+]2(CCCCC2)N=C1[O-]")
2.2
>>> value_measured("COc1ccccc1C(=O)N/N=C\\c1c[nH]c2ccccc12")
2.05
